# assay overview: Area under plasma concentration vs time curve observed in rats for 0-3 h
# Assay type: ADME
# Design: time < 3 hr
# test conditions: rat
attribute measured: AUC at 3 h

Provide AUC at 3 h value for the following compound: CC1(C)S[C@@H]2[C@H](NC(=O)COc3ccccc3)C(=O)N2[C@H]1C(=O)O
32 µg·h/mL

Provide AUC at 3 h value for the following compound: Nc1nc(CC(=O)N[C@@H]2C(=O)N3C(C(=O)O)=C(Cl)CS[C@H]23)cs1
35.4 µg·h/mL

Provide AUC at 3 h value for the following compound: O=C(COc1ccccc1)N[C@@H]1C(=O)N2C(C(=O)O)=C(Cl)CS[C@H]12
51.4 µg·h/mL

====

# assay overview: Mean plasma levels in rats 3h after intravenous administration of 20 mg/kg of compound
# Type: ADME, organism-based
# Design: dose 20 mg/kg, route intravenous
# test conditions: rat, read-out: Plasma levels
attribute measured: concentration at 3 h (ng/mL)
Just the number please, in ng/mL, no unit attached.

Provide concentration at 3 h value for the following molecule: O=C(COc1ccccc1)N[C@@H]1C(=O)N2C(C(=O)O)=C(Cl)CS[C@H]12
500

====

# Tested on: Streptococcus pneumoniae
# assay overview: Minimum inhibitory concentration against Park strain of Streptococcus pneumoniae
Overview of recorded MIC for various compounds

Worked cases, answers included:
{"columns": ["chemical smiles", "MIC"],
 "data": [
  ["O=C(Cc1csc(Cl)n1)N[C@@H]1C(=O)N2C(C(=O)O)=C(Cl)CS[C@H]12", "0.5 µg/mL"],
  ["C=CC1=C(C(=O)O)N2C(=O)[C@@H](NC(=O)COc3ccccc3)[C@H]2SC1", "0.125 µg/mL"],
  ["Cc1nc(CC(=O)N[C@@H]2C(=O)N3C(C(=O)O)=C(Cl)CS[C@H]23)cs1", "1 µg/mL"],
  ["COC1=C(C(=O)O)N2C(=O)[C@@H](NC(=O)COc3ccccc3)[C@H]2SC1", "1 µg/mL"],
  ["O=C(Cc1ccsc1)N[C@@H]1C(=O)N2C(C(=O)O)=C(Cl)CS[C@H]12", "0.125 µg/mL"]
]}

Now examine the next entry.
Provide MIC value for the following compound: O=C(COc1ccc(O)cc1)N[C@@H]1C(=O)N2C(C(=O)O)=C(Cl)CS[C@H]12
0.125 µg/mL

====

# assay overview: Area under plasma concentration vs time curve observed in Rhesus monkeys after, iv administration of single 30 mg/kg dose
# Assay type: ADME, organism-based, Macaca mulatta
# Set-up: dose 30 mg/kg, route intravenous
# test conditions: rhesus monkey
attribute measured: AUC (µg·h/mL)
Just the number please, in µg·h/mL, no unit attached.

{"columns": ["chemical smiles", "attribute measured", "value observed"],
 "data": [
  ["O=C(Cc1ccccc1)N[C@@H]1C(=O)N2C(C(=O)O)=C(Cl)CS[C@H]12", "AUC", 58.3],
  ["O=C(Cc1csc2ccccc12)N[C@@H]1C(=O)N2C(C(=O)O)=C(Cl)CS[C@H]12", "AUC", 86.8],
  ["Nc1nc(CC(=O)N[C@@H]2C(=O)N3C(C(=O)O)=C(Cl)CS[C@H]23)cs1", "AUC", 50.3]
]}

Provide AUC value for the following compound: CC1(C)S[C@@H]2[C@H](NC(=O)COc3ccccc3)C(=O)N2[C@H]1C(=O)O
43

Provide AUC value for the following compound: O=C(COc1ccccc1)N[C@@H]1C(=O)N2C(C(=O)O)=C(Cl)CS[C@H]12
38

Provide AUC value for the following compound: O=C(Cc1cccs1)N[C@@H]1C(=O)N2C(C(=O)O)=C(Cl)CS[C@H]12
43.2

====

# assay overview: Mean plasma levels in rats 3h after intravenous administration of 20 mg/kg of compound
# Type: ADME, organism-based
# Set-up: dose 20 mg/kg, route intravenous
# test conditions: rat, read-out: Plasma level
attribute measured: concentration at 3 h

Provide concentration at 3 h value for the following molecule: CC1(C)S[C@@H]2[C@H](NC(=O)COc3ccccc3)C(=O)N2[C@H]1C(=O)O
< 300 ng/mL

====

# assay overview: Mean plasma levels in rats 20 min after iv administration of 100 mg/kg of probenecid 5 min prior to test compound
# Type: ADME, organism-based
# Parameters: dose 100 mg/kg, route intravenous
# test conditions: rat, read-out: Plasma level
attribute measured: concentration at 20 min (ng/mL)
Just the number please, in ng/mL, no unit attached.

Provide concentration at 20 min value for the following molecule: CC1(C)S[C@@H]2[C@H](NC(=O)COc3ccccc3)C(=O)N2[C@H]1C(=O)O
30400

====

# assay overview: Mean plasma levels in rats at a time 5 min after iv administration of 100 mg/kg of probenecid 5 min prior to test compound
# Assay type: ADME, organism-based
# Parameters: dose 100 mg/kg, route intravenous
# test conditions: rat, read-out: Plasma level
attribute measured: concentration at 5 min (µg/mL)
Just the number please, in µg/mL, no unit attached.

Provide concentration at 5 min value for the following molecule: CC1(C)S[C@@H]2[C@H](NC(=O)COc3ccccc3)C(=O)N2[C@H]1C(=O)O
59

====

Overview of recorded log10 of MIC for various compounds
# System: Staphylococcus epidermidis
# assay overview: Minimum inhibitory concentration against 222 strain of Staphylococcus epidermidis
# Assay type: functional
Reminder: these figures are log10 of reported MIC, in µg/mL before transformation.

{"columns": ["compound", "log10 of MIC"],
 "data": [
  ["O=C(Cc1ccc(O)cc1)N[C@@H]1C(=O)N2C(C(=O)O)=C(Cl)CS[C@H]12", 0.30],
  ["CC1(C)S[C@@H]2[C@H](NC(=O)COc3ccccc3)C(=O)N2[C@H]1C(=O)O", -1.22],
  ["Nc1nc(CC(=O)N[C@@H]2C(=O)N3C(C(=O)O)=C(Cl)CS[C@H]23)cs1", 0.30],
  ["COC1=C(C(=O)O)N2C(=O)[C@@H](NC(=O)Cc3csc(N)n3)[C@H]2SC1", 1.51],
  ["N[C@@H](C(=O)N[C@@H]1C(=O)N2C(C(=O)O)=C(Cl)CS[C@H]12)c1ccccc1 [CEFACLOR ANHYDROUS]", 0.60],
  ["C=CC1=C(C(=O)O)N2C(=O)[C@@H](NC(=O)Cc3csc(N)n3)[C@H]2SC1", 0.00]
]}

Provide log10 of MIC value for the following compound: O=C(Cc1ccsc1)N[C@@H]1C(=O)N2C(C(=O)O)=C(Cl)CS[C@H]12
0.00

Provide log10 of MIC value for the following compound: O=C(Cc1csc2ccccc12)N[C@@H]1C(=O)N2C(C(=O)O)=C(Cl)CS[C@H]12
-0.60

Provide log10 of MIC value for the following compound: COC1=C(C(=O)O)N2C(=O)[C@@H](NC(=O)COc3ccccc3)[C@H]2SC1
0.30

Provide log10 of MIC value for the following compound: O=C(COc1ccc(O)cc1)N[C@@H]1C(=O)N2C(C(=O)O)=C(Cl)CS[C@H]12
0.00

====

# System: Staphylococcus epidermidis
# assay overview: Minimum inhibitory concentration against 222 strain of Staphylococcus epidermidis
# Type: functional
The label T is reserved for MIC strictly under 0.5 µg/mL; F covers values equal to or above it.

{"columns": ["chemical smiles", "tgt", "qualitative label"],
 "data": [
  ["O=C(Cc1cccs1)N[C@@H]1C(=O)N2C(C(=O)O)=C(Cl)CS[C@H]12", "Staphylococcus epidermidis", "F"],
  ["CC1=C(C(=O)O)N2C(=O)[C@@H](NC(=O)COc3ccccc3)[C@H]2SC1", "Staphylococcus epidermidis", "F"],
  ["O=C(Cc1ccccc1)N[C@@H]1C(=O)N2C(C(=O)O)=CCS[C@H]12", "Staphylococcus epidermidis", "F"],
  ["O=C(COc1ccccc1)N[C@@H]1C(=O)N2C(C(=O)O)=C(Cl)CS[C@H]12", "Staphylococcus epidermidis", "T"],
  ["O=C(Cc1ccccc1)N[C@@H]1C(=O)N2C(C(=O)O)=C(Cl)CS[C@H]12", "Staphylococcus epidermidis", "F"],
  ["COCC1=C(C(=O)O)N2C(=O)[C@@H](NC(=O)COc3ccccc3)[C@H]2SC1", "Staphylococcus epidermidis", "T"]
]}

Now turn to the next compound.
Just wondering, is MIC of O=C(Cc1csc2ccc(Cl)cc12)N[C@@H]1C(=O)N2C(C(=O)O)=C(Cl)CS[C@H]12 below 0.5 µg/mL?
T

====

# assay overview: Area under plasma concentration vs time curve observed in Rhesus monkeys after oral administration of single 30 mg/kg dose
# Format: ADME, organism-based, Macaca mulatta
# Design: dose 30 mg/kg, route oral
# test conditions: rhesus monkey
Overview of recorded AUC for various compounds
Just the number please, in ng·h/mL, no unit attached.

Worked cases, answers included:
{"columns": ["chemical smiles", "value units", "AUC"],
 "data": [
  ["O=C(Cc1ccccc1)N[C@@H]1C(=O)N2C(C(=O)O)=C(Cl)CS[C@H]12", "ng·h/mL", 8830],
  ["Nc1nc(CC(=O)N[C@@H]2C(=O)N3C(C(=O)O)=C(Cl)CS[C@H]23)cs1", "ng·h/mL", 2170],
  ["O=C(COc1ccccc1)N[C@@H]1C(=O)N2C(C(=O)O)=C(Cl)CS[C@H]12", "ng·h/mL", 5000]
]}

Provide AUC value for the following compound: O=C(Cc1cccs1)N[C@@H]1C(=O)N2C(C(=O)O)=C(Cl)CS[C@H]12
5670

Provide AUC value for the following compound: CC1(C)S[C@@H]2[C@H](NC(=O)COc3ccccc3)C(=O)N2[C@H]1C(=O)O
2330

Provide AUC value for the following compound: O=C(Cc1csc2ccccc12)N[C@@H]1C(=O)N2C(C(=O)O)=C(Cl)CS[C@H]12
1170
